Consider the following molecules and their measured IC50 readings.
# tgt: human IGF-IR (Homo sapiens, UniProt P08069)
# Construct: complete human IGF-IR cDNA: GenBank Acc; No. NM_000875
# Sequence (P08069 31-1367): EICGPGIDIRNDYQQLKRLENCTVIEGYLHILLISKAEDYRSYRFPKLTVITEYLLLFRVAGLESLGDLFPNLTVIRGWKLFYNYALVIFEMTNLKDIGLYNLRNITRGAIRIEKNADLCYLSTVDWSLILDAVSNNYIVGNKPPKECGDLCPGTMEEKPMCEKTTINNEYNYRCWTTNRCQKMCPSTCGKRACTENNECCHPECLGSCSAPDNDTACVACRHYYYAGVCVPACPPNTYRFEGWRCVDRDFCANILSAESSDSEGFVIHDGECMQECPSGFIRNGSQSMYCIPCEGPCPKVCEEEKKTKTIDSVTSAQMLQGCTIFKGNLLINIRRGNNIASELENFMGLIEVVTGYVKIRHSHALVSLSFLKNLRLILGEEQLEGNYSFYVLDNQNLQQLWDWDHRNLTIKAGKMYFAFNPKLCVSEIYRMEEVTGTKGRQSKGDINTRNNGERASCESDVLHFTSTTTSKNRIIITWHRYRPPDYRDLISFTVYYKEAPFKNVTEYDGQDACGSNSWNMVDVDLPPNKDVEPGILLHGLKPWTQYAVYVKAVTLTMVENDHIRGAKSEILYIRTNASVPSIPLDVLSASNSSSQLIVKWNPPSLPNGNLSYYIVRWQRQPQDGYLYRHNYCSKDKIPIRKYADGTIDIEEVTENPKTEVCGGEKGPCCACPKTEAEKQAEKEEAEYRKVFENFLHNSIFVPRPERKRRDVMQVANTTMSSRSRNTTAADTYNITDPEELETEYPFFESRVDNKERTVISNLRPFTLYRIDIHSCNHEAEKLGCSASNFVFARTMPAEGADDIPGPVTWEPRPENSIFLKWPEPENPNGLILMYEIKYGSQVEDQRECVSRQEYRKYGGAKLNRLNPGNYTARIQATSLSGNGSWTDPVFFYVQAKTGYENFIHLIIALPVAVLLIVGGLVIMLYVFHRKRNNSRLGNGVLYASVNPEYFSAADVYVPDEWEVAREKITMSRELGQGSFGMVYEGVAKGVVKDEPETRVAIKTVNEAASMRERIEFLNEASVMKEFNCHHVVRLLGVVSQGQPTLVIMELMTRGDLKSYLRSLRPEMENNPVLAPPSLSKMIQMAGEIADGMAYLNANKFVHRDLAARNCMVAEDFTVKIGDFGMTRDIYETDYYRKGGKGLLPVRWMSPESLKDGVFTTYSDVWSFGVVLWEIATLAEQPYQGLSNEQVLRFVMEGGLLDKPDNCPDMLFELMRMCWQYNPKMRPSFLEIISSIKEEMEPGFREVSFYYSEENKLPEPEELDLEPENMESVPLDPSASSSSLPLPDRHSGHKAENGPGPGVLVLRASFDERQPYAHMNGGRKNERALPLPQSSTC
# measurementDescription: cellular "Capture ELISA": IGF-I induced IGF-IR autophosphorylation
# conditionDescription: NIH-3T3 mouse fibroblasts transfected with human IGF-IR cDNA, 90 min compound, 10 ng/ml IGF-I for 10 min
Give a bare numeral; the unit µM is implied.

Please review the entries below; each comes with its answer.
structureSmilesString: CCN(CC)CCOC(=O)NC[C@H]1C[C@H](n2cc(-c3cccc(OCc4ccccc4)c3)c3c(N)ncnc32)C1
unitSymbol: µM
measuredResult: 0.08
--
structureSmilesString: CNC[C@H]1C[C@@H](n2cc(-c3cccc(OCc4ccccc4)c3)c3c(N)ncnc32)C1
unitSymbol: µM
measuredResult: 0.042
--
structureSmilesString: NC(=O)NC[C@H]1C[C@@H](n2cc(-c3cccc(OCc4ccccc4)c3)c3c(N)ncnc32)C1
unitSymbol: µM
measuredResult: 0.04
--
structureSmilesString: NC[C@H]1C[C@@H](n2cc(-c3cccc(OCc4ccccc4)c3)c3c(N)ncnc32)C1
unitSymbol: µM
measuredResult: 0.062
--
structureSmilesString: CCNC(=O)NC[C@H]1C[C@H](n2cc(-c3cccc(OCc4ccccc4)c3)c3c(N)ncnc32)C1
unitSymbol: µM
measuredResult: 0.055
--
structureSmilesString: CN(C)CCOC(=O)NC[C@H]1C[C@H](n2cc(-c3cccc(OCc4ccccc4)c3)c3c(N)ncnc32)C1
unitSymbol: µM
measuredResult: 0.04

Which IC50 is listed for `COCCOC(=O)NC[C@H]1C[C@H](n2cc(-c3cccc(OCc4ccccc4)c3)c3c(N)ncnc32)C1` ?
0.095

Same lookup for `Nc1ncnc2c1c(-c1cccc(OCc3ccccc3)c1)cn2[C@H]1C[C@@H](CN2CCC(O)CC2)C1` , please.
0.05
